Recorded Ratio EC50s relative to Gal-(1-15), GalR2 Ca efflux for the following molecules
Target: GalR2 (Homo sapiens, UniProt O43603)
Construct: expressed in transfected cells; host or cells: HEK293
Sequence (O43603 1-387): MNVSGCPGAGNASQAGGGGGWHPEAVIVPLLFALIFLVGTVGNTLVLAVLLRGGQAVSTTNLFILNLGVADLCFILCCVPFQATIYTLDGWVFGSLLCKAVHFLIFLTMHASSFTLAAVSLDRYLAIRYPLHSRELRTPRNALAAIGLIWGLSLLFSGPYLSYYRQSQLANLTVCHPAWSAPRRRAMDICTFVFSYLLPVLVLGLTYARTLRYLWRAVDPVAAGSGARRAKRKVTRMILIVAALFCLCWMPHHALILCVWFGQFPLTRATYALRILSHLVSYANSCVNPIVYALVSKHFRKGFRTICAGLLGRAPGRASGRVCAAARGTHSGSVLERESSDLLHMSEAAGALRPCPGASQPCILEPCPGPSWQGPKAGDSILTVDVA
Assay type: cell-based
Answer with a number only.

Example cases with answers are listed next.
>  <MOLECULE>
CC(C)C[C@H](NC(=O)[C@H](CC(C)C)NC(=O)[C@H](Cc1ccc(O)cc1)NC(=O)CNC(=O)[C@H](C)NC(=O)[C@H](C)NC(=O)[C@H](CC(N)=O)NC(=O)[C@H](CC(C)C)NC(=O)[C@H](CC(N)=O)NC(=O)[C@H](Cc1c[nH]c2ccccc12)NC(=O)[C@@H]1CCC(=O)N1)C(=O)NCC(=O)N1CCC[C@H]1C(=O)NC1CSCC(C(=O)O)NC(=O)[C@H](C(C)C)NC(=O)[C@H](C)NC1=O (single isomer, unassigned) [4178 B]

>  <STUDY SYSTEM>
GalR2 (Homo sapiens, UniProt O43603)

>  <EXPERIMENTAL VALUE>
1.4

$$$$
>  <MOLECULE>
CC(C)C[C@@H]1NC(=O)[C@H](CC(C)C)NC(=O)[C@H](Cc2ccc(O)cc2)NC(=O)C(NC(=O)[C@H](C)NC(=O)[C@H](C)NC(=O)[C@H](CC(N)=O)NC(=O)[C@H](CC(C)C)NC(=O)[C@@H](NC(=O)[C@H](Cc2c[nH]c3ccccc23)NC(=O)[C@@H]2CCC(=O)N2)[C@@H](C)O)CSCC(C(=O)O)NC1=O (single isomer, unassigned) [4179 C, pEWTLNAAlanYLLlan]

>  <STUDY SYSTEM>
GalR2 (Homo sapiens, UniProt O43603)

>  <EXPERIMENTAL VALUE>
248

$$$$
>  <MOLECULE>
CC(C)C[C@@H]1NC(=O)[C@H](CC(C)C)NC(=O)[C@H](Cc2ccc(O)cc2)NC(=O)C(NC(=O)[C@H](C)NC(=O)[C@H](C)NC(=O)[C@H](CC(N)=O)NC(=O)[C@H](CC(C)C)NC(=O)[C@@H](NC(=O)[C@H](Cc2c[nH]c3ccccc23)NC(=O)[C@@H]2CCC(=O)N2)[C@@H](C)O)CSCC(C(=O)O)NC1=O (single isomer, unassigned) [4179 B, pEWTLNAAlanYLLlan]

>  <STUDY SYSTEM>
GalR2 (Homo sapiens, UniProt O43603)

>  <EXPERIMENTAL VALUE>
2.6

$$$$
>  <MOLECULE>
CC(C)C[C@H](NC(=O)[C@H](CC(C)C)NC(=O)[C@H](Cc1ccc(O)cc1)NC(=O)CNC(=O)[C@H](C)NC(=O)[C@H](C)NC(=O)[C@H](CC(N)=O)NC(=O)[C@H](CC(C)C)NC(=O)[C@H](CC(N)=O)NC(=O)[C@H](Cc1c[nH]c2ccccc12)NC(=O)[C@@H]1CCC(=O)N1)C(=O)NCC(=O)N1CCC[C@H]1C(=O)NC1CSCC(C(=O)O)NC(=O)[C@H](C(C)C)NC(=O)[C@H](C)NC1=O (single isomer, unassigned) [4178 A]

>  <STUDY SYSTEM>
GalR2 (Homo sapiens, UniProt O43603)

>  <EXPERIMENTAL VALUE>
11

$$$$

Okay, next one:
Provide one value: measured Ratio EC50s relative to Gal-(1-15), GalR2 Ca efflux of CC(C)C[C@@H]1NC(=O)[C@H](CC(C)C)NC(=O)[C@H](Cc2ccc(O)cc2)NC(=O)C(NC(=O)[C@H](C)NC(=O)[C@H](C)NC(=O)[C@H](CC(N)=O)NC(=O)[C@H](CC(C)C)NC(=O)[C@@H](NC(=O)[C@H](Cc2c[nH]c3ccccc23)NC(=O)[C@@H]2CCC(=O)N2)[C@@H](C)O)CSCC(C(=O)O)NC1=O (single isomer, unassigned) [4179 A, pEWTLNAAlanYLLlan] 94
